Test system: PDE4 from human U-937 cells
PROTOCOL_DESCRIPTION: PDE4 Inhibition Assay
Assay type: biochemical
COND: 1 μM cAMP, [3H]-cAMP, read-out: Potency Class (Inhibitory Concentration) in the PDE4 assay
Overview of recorded IC50 for various compounds

smiles_input=COc1ccc(N2CCN(C(=O)Cc3c[nH]cn3)[C@@H](CC(C)C)C2)cc1OC(C)C observed_result="0.2 to 1 µM"
smiles_input=COc1ccc(N2CCN(C(=O)Cn3ccnc3)[C@@H](Cc3ccccc3)C2)cc1OC1CCCC1 observed_result="> 1 µM"
smiles_input=Cc1nc(CC(=O)N2CCN(c3ccc(OC(F)F)c(OC4CCCC4)c3)C[C@@H]2CC(C)C)n[nH]1 observed_result="< 0.2 µM"
smiles_input=COc1ccc(N2CCN(Cc3cccc(O)c3)[C@@H](Cc3ccccc3)C2)cc1OC1CCCC1 observed_result="> 1 µM"
smiles_input=O=C(Cc1ncccn1)N1CCN(c2ccc(OC(F)F)c(OC3CCC3)c2)C[C@@H]1Cc1ccccc1 observed_result="0.2 to 1 µM"
smiles_input=COc1ccc(N2CCN(C(=O)c3c[nH]cn3)[C@@H](Cc3ccccc3)C2)cc1OC1CCCC1 observed_result="0.2 to 1 µM"

Query string: GET /values?readout=IC50&item= `COc1ccc(N2CCN(CCc3cnc[nH]3)[C@@H](Cc3ccccc3)C2)cc1OC1CCCC1`
Result string: > 1 µM
